# TARGET_SYSTEM: human CD3 (human, UniProt P07766 23-207; P04234 22-171; P09693 23-182)
# Sequence (P07766 23-207, chain 1 of 3): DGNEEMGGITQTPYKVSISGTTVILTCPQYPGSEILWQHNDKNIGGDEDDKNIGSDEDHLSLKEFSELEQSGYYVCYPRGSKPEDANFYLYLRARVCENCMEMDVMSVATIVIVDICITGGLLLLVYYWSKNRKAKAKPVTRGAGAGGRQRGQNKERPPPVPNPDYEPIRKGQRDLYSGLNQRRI
# Sequence (P04234 22-171, chain 2 of 3): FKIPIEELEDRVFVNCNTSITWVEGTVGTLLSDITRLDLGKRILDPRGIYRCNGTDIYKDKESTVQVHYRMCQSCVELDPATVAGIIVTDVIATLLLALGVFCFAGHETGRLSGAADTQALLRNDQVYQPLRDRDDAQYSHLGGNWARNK
# Sequence (P09693 23-182, chain 3 of 3): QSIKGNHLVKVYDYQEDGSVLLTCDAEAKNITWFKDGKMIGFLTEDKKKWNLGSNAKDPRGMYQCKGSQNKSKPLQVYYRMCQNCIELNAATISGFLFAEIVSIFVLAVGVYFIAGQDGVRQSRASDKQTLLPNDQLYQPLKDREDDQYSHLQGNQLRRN
# EXPERIMENTAL_DETAILS: cell-based or functional assay
Measured Top signal (Jurkat-NFAT-luciferase activation) values are reported for all entries that follow.
Please give only the number in your answer, with no unit.

# BINDER, VALUE_MEASURED
rows = [
    ("ch127E2D3 (antibody, V domains shown) VH: QVQLQQPGTELVKPGASVKLSCKASGYTFTSYWMHWVKQRPGEGLEWIGNIYPGSSSINYNEKFKSKATLTVDKSSSTAYMQLSSLTSEDSAVYYCARDRSSQYYFDYWGQGTTLTVSS VL: DIVMSQSPSSLAVSAGEKVTMSCKSSQSLLNSRTRKNYLAWYQQKPGQSPKLLIYWASTRESGVPDRFTGSGSGTDFTLTISSVQAEDLAVYYCTQSYNLRTFGGGTKLEIK", 337),
    ("ch147E11E2 (antibody, V domains shown) VH: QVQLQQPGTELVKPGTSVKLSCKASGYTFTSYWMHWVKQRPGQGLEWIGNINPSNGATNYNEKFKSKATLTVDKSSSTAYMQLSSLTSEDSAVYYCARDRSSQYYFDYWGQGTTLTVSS VL: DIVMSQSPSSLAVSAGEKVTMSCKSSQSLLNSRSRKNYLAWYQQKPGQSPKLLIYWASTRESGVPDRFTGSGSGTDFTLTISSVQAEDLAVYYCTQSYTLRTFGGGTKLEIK", 421),
    ("ch126A11A4 (antibody, V domains shown) VH: QVQLQQPGTELVKPGASVKLSCKASGYTFTSYWMHWVKQRPEQGLEWIGNINPSNGDTNYNEKFKSKATLTVDKASNTAYMQLSSLTSEDSAVYYCGRDRSSQYYFDYWGQGTTLTVSS VL: DIVMSQSPSSLAVSAGEKVTMSCKSSQSLLNSRTRKNYLAWYQQKPGQSPKLLIYWASTRESGVPDRFTGSGSGTDFTLTISSVQAEDLAVYFCKQSFILRTFGGGTKLEIK", 682),
    ("ch147C6F3 (antibody, V domains shown) VH: QVQLQQPGTELVKPGASVKLSCKASGYTFDSYWMHWVKQRPGQGLEWIGNLNPSNGEINYNEKFKHKATLTVDKSSSTAYMQLSSLTSEDSAVYYCSRDRSSQYYFDYWGQGTTLTVSS VL: DIVMSQSPSSLAVSAGEKVTLSCKSSQSLLNSRTRKNYLAWYQQKSGQSPKLLMYWASTRESGVPDRFTGSGSGTDFTLTITNVQAEDLAVYYCKQSYILRTFGGGTKLEIK", 428),
    ("BMK-B219 (antibody, V domains shown, benchmark anti-CD3 antibody; also called anti-CD3 antibody developed by JNJ (Johnson & Johnson)) VH: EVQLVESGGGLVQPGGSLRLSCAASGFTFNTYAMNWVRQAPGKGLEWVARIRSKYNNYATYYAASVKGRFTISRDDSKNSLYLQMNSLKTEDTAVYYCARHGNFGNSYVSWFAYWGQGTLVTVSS VL: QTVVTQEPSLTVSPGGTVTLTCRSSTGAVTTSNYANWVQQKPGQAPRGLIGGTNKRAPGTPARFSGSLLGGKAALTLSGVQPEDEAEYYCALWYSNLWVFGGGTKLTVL", 811),
]

Request: Query: Top signal (Jurkat-NFAT-luciferase activation); subject: ch124E3D6 (antibody, V domains shown) VH: QVQLQQPGTELVKPGASVKLSCKASGYTFTSYWMHWVKQRPGQGLEWIGNINPSNGDTNYNEKFKSKATLTVDKSSSTAYMQLSSLTSEDSAVYYCARDRSSQYYFDYWGQGTTLTVSS VL: DIVMSQSPSSLAVSAGEKVTMSCKSSQSLLNSRTRKNYLAWYQQKPGQSPKLLIYWASTRESGVPDRFTGSGSGTDFTLTISSVQAEDLAVYYCKQSYNLRTFGGGTKLEIK
Response: 482

Request: Query: Top signal (Jurkat-NFAT-luciferase activation); subject: ch133B4C7 (antibody, V domains shown) VH: QVQLQQPGTELVKPGASVKLSCKASGYTFTSYWMHWVKQRPGQGLEWIGNINPSNGDTNFNEKFKSKATLTVDKSSSTAYMQLSSLTSEDSAVYYCARDRSSQYYFDYWGQGTTLTVSS VL: DIVMSQSPSSLAVSAGEKVTMSCNSSQSLLNSRTRKNYLAWYQQKPGQSPKLLIYWASTRESGVPDRFTGSGSGTDFTLTISSVQAEDLAVYYCKQSYTLRTFGGGTKLEIK
Response: 290

Hey, just so you know, these numbers are from patent US20250223358A1.
